Property: Ki; scope: individual compounds
Target: Cbl (RING) protein (Homo sapiens)
Construct: including the linker and RING domain (codon 358–457); GST (Glutathione S-Transferase); made in house
Sequence (P22681 358-457): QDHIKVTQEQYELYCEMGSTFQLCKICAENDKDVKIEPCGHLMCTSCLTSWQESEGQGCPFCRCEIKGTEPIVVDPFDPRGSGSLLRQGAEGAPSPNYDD
Experiment: Fluorescence polarization (FP) assay, competition with FITC-βA-PFKPP-NH2 probe
Format: binding
Conditions: probe FITC-βA-PFKPP-NH2 100 nmol/L, Cbl (RING) protein 3 μmol/L, PBS pH 7.4
*1 amine or outer side, *2 acyl side, *3 side chain or, on linkers, in order; H or OH if unused. Where a SMILES comes first, the peptide text is derived from it. [ ]: non-standard residue; d: D form. Phe(4-NO2) = N[C@@H](Cc1ccc([N+](=O)[O-])cc1)C(=O)O; X2 = CC(=O)CN(CCCC[C@H](N[*:1])C(=O)[*:2])C(C)=O; Pro(trans-4-F) = O=C(O)[C@@H]1C[C@@H](F)CN1; X1 = CC(=O)N(O)CCCC[C@H](N[*:1])C(=O)[*:2]; Phe(3-F) = N[C@@H](Cc1cccc(F)c1)C(=O)O; ΔPro = O=C(O)[C@@H]1C=CCN1; Pip = O=C(O)[C@@H]1CCCCN1; Thz = O=C(O)[C@@H]1CSCN1
Hi! Could you send only the number? It should be in µM, unit omitted.

| compound | target-or-test-system | Ki / µM |
| --- | --- | --- |
| CC(=O)N1CCC[C@@H]1C(=O)N[C@@H](Cc1cccc(F)c1)C(=O)N[C@@H](CCCCN)C(=O)N1CCC[C@H]1C(=O)N1CCC[C@H]1C(N)=O [Peptide 31, Ac-(o) (h)KPP-NH2] (Ac-[dP][Phe(3-F)]KPP-NH2) | Cbl (RING) protein (Homo sapiens) | 4.5 |
| CC(=O)CN(CCCC[C@H](NC(C)=O)C(=O)N1CCC[C@H]1C(=O)N[C@@H](C)C(=O)N[C@H](C(=O)N[C@@H](CCCCN)C(N)=O)[C@@H](C)O)C(C)=O [Peptide 41, Ac-(w)PATK-NH2] (Ac-[X2]PATK-NH2) | Cbl (RING) protein (Homo sapiens) | 96.2 |
| CC(=O)N[C@@H](CCCCN)C(=O)N1CC=C[C@H]1C(=O)N[C@@H](C)C(=O)N[C@H](C(=O)N[C@@H](CCCCN)C(N)=O)[C@@H](C)O [Peptide 47, Ac-K(p)ATK-NH2] (Ac-K[ΔPro]ATK-NH2) | Cbl (RING) protein (Homo sapiens) | 44.3 |
| CC(=O)N[C@@H](CCCCN)C(=O)N1CCC[C@H]1C(=O)N[C@@H](C)C(=O)N[C@H](C(=O)N[C@@H](CCCCN(O)C(C)=O)C(N)=O)[C@@H](C)O [Peptide 42, Ac-KPAT(v)-NH2] (Ac-KPAT[X1]-NH2) | Cbl (RING) protein (Homo sapiens) | 59.8 |
| CC(=O)N[C@@H](CCCCN)C(=O)N1CSC[C@H]1C(=O)N[C@@H](CC(C)C)C(=O)N[C@H](C(=O)N[C@@H](CCCCN)C(N)=O)[C@@H](C)O [Peptide 56, Ac-K(r)LTK-NH2] (Ac-K[Thz]LTK-NH2) | Cbl (RING) protein (Homo sapiens) | 226 |
| CC(=O)N1CCC[C@H]1C(=O)N[C@@H](Cc1ccc([N+](=O)[O-])cc1)C(=O)N[C@@H](CCCCN)C(=O)N1CCC[C@H]1C(=O)N1CCC[C@H]1C(N)=O [Peptide 13, Ac-P(k)KPP-NH2] (Ac-P[Phe(4-NO2)]KPP-NH2) | Cbl (RING) protein (Homo sapiens) | 4.2 |

Prompt: Name the recorded Ki for CC(=O)N[C@@H](CCCCN)C(=O)N1CSC[C@H]1C(=O)N[C@H](C(=O)N[C@H](C(=O)N[C@@H](CCCCN)C(N)=O)[C@@H](C)O)C(C)C [Peptide 53, Ac-K(r)VTK-NH2] (Ac-K[Thz]VTK-NH2) .
Completion: 91.2

Prompt: Name the recorded Ki for CC(=O)N[C@@H](CCCCN)C(=O)N1CCCC[C@H]1C(=O)N[C@@H](C)C(=O)N[C@H](C(=O)N[C@@H](CCCCN)C(N)=O)[C@@H](C)O [Peptide 50, Ac-K(s)ATK-NH2] (Ac-K[Pip]ATK-NH2) .
Completion: 32.6

Prompt: Name the recorded Ki for CC(=O)CN(CCCC[C@H](NC(=O)[C@@H](NC(=O)[C@H](C)NC(=O)[C@@H]1CCCN1C(=O)[C@H](CCCCN(O)C(C)=O)NC(C)=O)[C@@H](C)O)C(N)=O)C(C)=O [Peptide 44, Ac-(v)PAT(w)-NH2] .
Completion: 126

Prompt: Name the recorded Ki for CC[C@H](C)[C@H](NC(=O)[C@@H]1CSCN1C(=O)[C@H](CCCCN)NC(C)=O)C(=O)N[C@H](C(=O)N[C@@H](CCCCN)C(N)=O)[C@@H](C)O [Peptide 55, Ac-K(r)ITK-NH2] (Ac-K[Thz]ITK-NH2) .
Completion: 190

Prompt: Name the recorded Ki for CC(=O)N1C[C@H](F)C[C@H]1C(=O)N[C@@H](Cc1cccc(F)c1)C(=O)N[C@@H](CCCCN)C(=O)N1CCC[C@H]1C(=O)N1CCC[C@H]1C(N)=O [Peptide 36, Ac-(t) (h)KPP-NH2] (Ac-[Pro(trans-4-F)][Phe(3-F)]KPP-NH2) .
Completion: 14.5

Prompt: Name the recorded Ki for CC(=O)N[C@@H](CCCCN(O)C(C)=O)C(=O)N1CCC[C@H]1C(=O)N[C@@H](C)C(=O)N[C@H](C(=O)N[C@@H](CCCCN)C(N)=O)[C@@H](C)O [Peptide 40, Ac-(v)PATK-NH2] (Ac-[X1]PATK-NH2) .
Completion: 51.8

The reported measurements were obtained from paper PMC4546618.
